Molecular target: horse liver GST (hlGST)
Experiment: Glutathione S-transferase inhibition assay (Habig method), hlGST
Assay type: biochemical
Settings: determined for compounds with IC50 < 33 μM; substrate 200, 400, 800 μM; read-out: Enzyme Inhibition hlGST Ki
observable: Ki (nM)
// return numeric value only (unit: nM, not printed)

Looking for the measured Ki of O=[C]=[Ru-2]12(=[C]=O)([O][n+]3ccccc3[S]1)[O][n+]1ccccc1[S]2 [Complex 8, [Ru(L1)2(CO)2]] , can you help? 850

----------
What pIC50 was measured for each of the following?
Target: electric eel AChE (eeAChE) (Electrophorus electricus)
Construct: purchased Sigma-Aldrich
Sequence (O42275 24-633): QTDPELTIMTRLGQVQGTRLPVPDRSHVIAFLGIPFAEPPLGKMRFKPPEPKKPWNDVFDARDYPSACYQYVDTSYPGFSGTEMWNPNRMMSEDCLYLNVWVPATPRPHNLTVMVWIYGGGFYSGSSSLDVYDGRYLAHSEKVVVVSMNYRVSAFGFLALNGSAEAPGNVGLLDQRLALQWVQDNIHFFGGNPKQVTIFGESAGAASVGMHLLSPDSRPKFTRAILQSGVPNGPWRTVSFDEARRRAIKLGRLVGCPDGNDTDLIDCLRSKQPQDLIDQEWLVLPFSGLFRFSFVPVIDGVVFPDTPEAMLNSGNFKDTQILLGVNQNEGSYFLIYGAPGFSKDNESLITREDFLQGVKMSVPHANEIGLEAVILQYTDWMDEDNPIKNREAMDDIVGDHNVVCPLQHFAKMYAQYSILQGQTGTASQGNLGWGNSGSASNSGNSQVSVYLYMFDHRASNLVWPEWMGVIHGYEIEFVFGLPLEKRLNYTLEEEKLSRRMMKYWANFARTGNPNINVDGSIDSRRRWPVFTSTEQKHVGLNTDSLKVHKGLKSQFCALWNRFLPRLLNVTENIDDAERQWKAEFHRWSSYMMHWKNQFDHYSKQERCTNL
Test: Cholinesterase inhibition assay (modified Ellman method), eeAChE
Format: biochemical
Conditions: mean ± SEM of three independent measurements; / = No activity; read-out: Enzyme Inhibition eeAChE IC50
Procedure: The activities of the ChEs were determined using a modification of the Ellman method adapted for microtiter plates, as described in [47]. […] Finally, 50 μL of each ChE solution was added into the microtiter plate wells to start the reaction, which was followed spectrophotometrically at 405 nm at 25 °C over 5 min using a kinetic microplate reader (Dynex Technologies Inc., Chantilly, VA, USA). […]
pIC50: −log10 of the molar value.

Could you share which pIC50 value was measured for Cc1ccc(C(C)C)cc1.FC(F)(F)C1=[O+][Ru-]([P+]23CN4CN(CN(C4)C2)C3)[O]C(c2ccccc2Br)=C1.F[P-](F)(F)(F)(F)F [Complex 7, [RuCym(L2)pta]PF6] ? < 4.00

Next: O=[C]=[Ru-2]12(=[C]=O)([O][n+]3ccccc3[S]1)[O][n+]1ccccc1[S]2 [Complex 8, [Ru(L1)2(CO)2]] < 4.00

Again, but for CCCCCCCCCCCCCCCCCC(=O)CC(=O)c1ccccc1 [Complex L3, 1-phenylicosane-1,3-dione, reference compound] < 4.00

Same thing, different molecule: CN(C)C(=O)Oc1cccc([N+](C)(C)C)c1 [Neostigmine methylsulphate, reference compound] 5.22

What about this molecule? O=C(CC(=O)C(F)(F)F)c1ccccc1Br [Complex L2, reference compound] < 4.00
